target: HIV-1 NefNL4-3 (Human immunodeficiency virus type 1 group M subtype B, UniProt P03406, A33V/T15A/T51N/V11I); test: Surface plasmon resonance binding to recombinant full-length Nef (NL4-3); details: Nef NL4-3 Binding, SPR 2-state fitting KD, Table 2; 2-step induced-fit model
pKd: −log10 of the molar value.
As shown below, each of these compounds has a reported pKd value.
assay-readout: pKd

{"columns": ["chem-smiles", "assay-readout", "reported"],
 "data": [
  ["CS(=O)(=O)c1ccc(-c2nn(-c3cc(C(F)(F)F)n[nH]3)c(O)c2CCc2ccc(F)cc2)cc1", "pKd", 7.24],
  ["Oc1c(CCc2ccc(F)cc2)c(-c2ccc(C(F)(F)F)cc2)nn1-c1cc(C(F)(F)F)n[nH]1", "pKd", 8.05]
]}
